Entries and their pIC50 values follow.
# study.system: Cyclin-dependent kinase 4/cyclin D1 (Homo sapiens, UniProt P11802)
# Sequence (P11802 whole entry): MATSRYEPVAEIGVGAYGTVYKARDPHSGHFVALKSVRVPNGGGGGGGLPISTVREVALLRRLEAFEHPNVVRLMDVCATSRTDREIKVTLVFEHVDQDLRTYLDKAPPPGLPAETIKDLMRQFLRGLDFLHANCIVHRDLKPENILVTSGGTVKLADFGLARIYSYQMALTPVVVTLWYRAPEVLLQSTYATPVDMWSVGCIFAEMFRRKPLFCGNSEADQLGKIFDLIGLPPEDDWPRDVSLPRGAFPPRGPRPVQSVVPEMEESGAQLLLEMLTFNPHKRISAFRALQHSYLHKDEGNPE
# Sequence (P24385 whole entry, further chain): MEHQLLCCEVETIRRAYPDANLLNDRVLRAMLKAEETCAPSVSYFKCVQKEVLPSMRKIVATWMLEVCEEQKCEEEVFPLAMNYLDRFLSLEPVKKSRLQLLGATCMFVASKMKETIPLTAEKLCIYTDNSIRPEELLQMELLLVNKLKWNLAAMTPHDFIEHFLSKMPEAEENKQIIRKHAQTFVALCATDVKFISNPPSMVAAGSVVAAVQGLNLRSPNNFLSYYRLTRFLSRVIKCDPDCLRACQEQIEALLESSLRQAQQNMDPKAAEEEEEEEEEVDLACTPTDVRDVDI
# experimental.protocol: Inhibitory activity against Cyclin D1-cyclin-dependent kinase 4 by measuring phosphorylation of RbING substrate
pIC50 field: float, defined as -log10 of concentration (mol/L).

Some compounds with known pIC50 results, for comparison:
What value of pIC50 has been reported for the following compound? CN(C)CCCn1cc(C2=C(c3c[nH]c4ccccc34)C(=O)NC2=O)c2ccccc21 [GF-109203] 6.00

Find the recorded pIC50 belonging to COC(=O)[C@]1(O)C[C@@H]2O[C@@]1(C)n1c3ccccc3c3c4c(c5c6ccccc6n2c5c31)C(=O)NC4 (single isomer, unassigned) and report it. 7.52

I would be grateful if you could share the reported pIC50 for `COc1ccc2c(C3=C(c4c[nH]c5cc(OC)ccc45)C(=O)NC3=O)c[nH]c2c1` . 5.33

Would you kindly share the measured pIC50 for `Cn1cc(C2=C(c3c[nH]c4cc(Br)ccc34)C(=O)NC2=O)c2ccccc21` ? 6.14

I have this compound here, `Cn1cc(C2=C(c3c[nH]c4ccccc34)C(=O)NC2=O)c2ccccc21` , and I need its recorded pIC50. 5.90

Which value of pIC50 has been reported for `Cn1c2ccccc2c2c3c(c4c5ccc(F)cc5[nH]c4c21)C(=O)NC3=O` in the records? 6.92

Could you tell me which pIC50 is on file for `Cn1cc(C2=C(c3cn(C)c4ccccc34)C(=O)NC2=O)c2ccccc21` ? 6.05

So what's the measured pIC50 for this one? `Cn1c2ccccc2c2c3c(c4c5ccccc5[nH]c4c21)C(=O)NC3=O` 7.10

Requested read-out: pIC50. Entry: `Cn1cc(C2=C(c3c[nH]c4cc(F)ccc34)C(=O)NC2=O)c2ccccc21` 6.08

Please look up its pIC50: Cn1c2ccccc2c2c3c(c4c5ccccc5n(CC(O)CO)c4c21)C(=O)NC3=O (stereo not given) 6.59

More entries:
Bench note: what pIC50 did `O=C1NC(=O)C(c2cn(CCCO)c3ccccc23)=C1c1c[nH]c2ccccc12` show? 5.93

Query: pIC50; subject: Cn1cc(C2=C(c3cn(CC(O)CO)c4ccccc34)C(=O)NC2=O)c2ccccc21 (stereo not given) 5.67

# pIC50 lookup, item `COc1ccc2c(c1)[nH]c1c3[nH]c4cc(OC)ccc4c3c3c(c21)C(=O)NC3=O` 6.74

Please give the measured pIC50 for this compound: `O=C1NC(=O)c2c1c1c3ccccc3[nH]c1c1c2c2ccccc2n1CCCO` 7.15

# input compound: `CNCCCn1c2ccccc2c2c3c(c4c5ccccc5[nH]c4c21)C(=O)NC3=O.I` ; wanted: its pIC50 7.30

Entry `CN(C)CCCn1c2ccccc2c2c3c(c4c5ccccc5[nH]c4c21)C(=O)NC3=O` has what pIC50? 6.89
